Listing of entries alongside the reported viability, T/C.
test system: MDA-MB-468 spheroids with HUVEC/MSC, viability; experiment: Anticancer human tumor MDA-MB-468 cell line growth inhibition [PI3K]; details: second compound 0.316 µM; first compound 0.0949 µM; stronger effect = lower value;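 also: spheroids exposed to agents for seven days before readout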;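 as to viability, T/C: 100% = DMSO vehicle control viability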
ATTRIBUTE_MEASURED: viability, T/C

                                   compound  result
0  Cn1cnc2c(F)c(Nc3ccc(Br)cc3Cl)c(C(=O)NOCCO)cc21 + CC(Nc1ccc2c(c1)OCCn1cc(N3C(=O)OCC3C(F)F)nc1-2)C(N)=O   64.4%
1  Cn1cnc2c(F)c(Nc3ccc(Br)cc3Cl)c(C(=O)NOCCO)cc21 + COc1c(OCCCN2CCOCC2)ccc2c3n(c(=NC(=O)c4cnc(N)nc4)nc12)CCN3   18.5%
2  Cn1cnc2c(F)c(Nc3ccc(Br)cc3Cl)c(C(=O)NOCCO)cc21 + Cc1nc(NC(=O)N2CCCC2C(N)=O)sc1-c1ccnc(C(C)(C)C(F)(F)F)c1   69.7%
3  Cn1cnc2c(F)c(Nc3ccc(Br)cc3Cl)c(C(=O)NOCCO)cc21 + CC(Nc1ncnc2nc[nH]c12)c1cc2cccc(Cl)c2c(=O)n1-c1ccccc1   75.6%

----------
Entries and their IC50
test system: MDA-MB-468 spheroids with HUVEC/MSC, viability; test: Anticancer human tumor MDA-MB-468 cell line growth inhibition [PI3K]; conditions: curve of first compound; second compound 10 µM;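 also: spheroids exposed to agents for seven days before readout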
ATTRIBUTE_MEASURED: IC50

COMPOUND	ATTRIBUTE_MEASURED	RESULT
Cn1nccc1Nc1nccc(-c2ccn(C(CO)c3ccc(Cl)c(F)c3)c(=O)c2)n1 (stereo not given) + CC(Nc1ncnc2nc[nH]c12)c1cc2cccc(Cl)c2c(=O)n1-c1ccccc1	IC50	< 31.6 nM
Cn1ncnc1[C@H]1c2n[nH]c(=O)c3cc(F)cc(c23)N[C@@H]1c1ccc(F)cc1 + CC(Nc1ncnc2nc[nH]c12)c1cc2cccc(Cl)c2c(=O)n1-c1ccccc1	IC50	< 0.316 nM
CCN1CCN(Cc2ccc(Nc3ncc(F)c(-c4cc(F)c5nc(C)n(C(C)C)c5c4)n3)nc2)CC1 + Cc1nc(NC(=O)N2CCCC2C(N)=O)sc1-c1ccnc(C(C)(C)C(F)(F)F)c1	IC50	< 3.16 nM
CC(=O)c1c(C)c2cnc(Nc3ccc(N4CCNCC4)cn3)nc2n(C2CCCC2)c1=O + Cc1nc(NC(=O)N2CCCC2C(N)=O)sc1-c1ccnc(C(C)(C)C(F)(F)F)c1	IC50	< 0.316 nM
C#Cc1c(F)ccc2cc(O)cc(-c3ncc4c(N5CC6CCC(C5)N6)nc(OCC56CCCN5CC(F)C6)nc4c3F)c12 (stereo not given) + Cc1nc(NC(=O)N2CCCC2C(N)=O)sc1-c1ccnc(C(C)(C)C(F)(F)F)c1	IC50	< 31.6 nM
CC(C)n1nc(-c2ccc3oc(N)nc3c2)c2c(N)ncnc21 + CC(Nc1ncnc2nc[nH]c12)c1cc2cccc(Cl)c2c(=O)n1-c1ccccc1	IC50	< 0.316 nM
CC(C)n1nc(-c2ccc3oc(N)nc3c2)c2c(N)ncnc21 + Cc1nc(NC(=O)N2CCCC2C(N)=O)sc1-c1ccnc(C(C)(C)C(F)(F)F)c1	IC50	< 0.316 nM
CC(Cn1ccc(-c2ccc(C#N)c(Cl)c2)n1)NC(=O)c1cc(C(C)O)[nH]n1 (stereo not given) + Cc1nc(NC(=O)N2CCCC2C(N)=O)sc1-c1ccnc(C(C)(C)C(F)(F)F)c1	IC50	< 31.6 nM
CCCS(=O)(=O)Nc1ccc(F)c(C(=O)c2c[nH]c3ncc(-c4ccc(Cl)cc4)cc23)c1F + Cc1nc(NC(=O)N2CCCC2C(N)=O)sc1-c1ccnc(C(C)(C)C(F)(F)F)c1	IC50	< 31.6 nM
Cn1nccc1Nc1nccc(-c2ccn(C(CO)c3ccc(Cl)c(F)c3)c(=O)c2)n1 (stereo not given) + Cc1nc(NC(=O)N2CCCC2C(N)=O)sc1-c1ccnc(C(C)(C)C(F)(F)F)c1	IC50	< 31.6 nM
